We begin with a simple list: items and their reported autophagy induction.
Tested on: TERT-RPE1
Assay: Here: values are normalized to the negative (DMSO; defined as 0% autophagy induction) and positive (250nM Torin1; mTOR inhibitor; defined as maximal inducer of autophagy = 100%) control compounds and represented as % of autophagy induction. […] The impact of autophagy induction on cells is complex and depends on the affected target. As such, the magnitude of a phenotype may not be equally mirrored in the %-value of autophagy induction and vice versa. The dynamics of the induction may indicate the mode of activation: e.g. activation via phosphorylation or a signaling cascade may occur fast, while activation via transcription factors may take considerably longer. […] Of note, treatment concentrations may be sub-optimal for specific compounds, leading to false negative annotations.
Format: functional, Homo sapiens
Details: Compound Concentration 2 uM, Timepoint 24 hours, Culturing Media DMEM/F12 (1:1), 1 % Penicillin/Streptomycin, 10% Fetal bovin serum Add-On: No, Screening Media Control DMEM/F12 (1:1), Screening Media Samples DMEM/F12 (1:1)

{"SMILES NOTATION": "COc1ccnc(N2CCC3(CCCN(Cc4c[nH]c5ccccc45)C3=O)CC2)n1", "RESULT UNIT": "%", "autophagy induction": -8.655}
{"SMILES NOTATION": "CS(=O)(=O)NC[C@H]1CC[C@H](Nc2nc3c(s2)CCSc2ccccc2-3)CC1", "RESULT UNIT": "%", "autophagy induction": -4.081}
{"SMILES NOTATION": "C[C@H](CO)Nc1nc(SCc2cccc(Cl)c2F)nc2[nH]c(=O)sc12", "RESULT UNIT": "%", "autophagy induction": -8.929}
{"SMILES NOTATION": "CCOC(=O)c1cc(C#N)c(N2CCC(C(=O)NS(=O)(=O)Cc3ccccc3)CC2)nc1C", "RESULT UNIT": "%", "autophagy induction": -5.808}
{"SMILES NOTATION": "O=C(Nc1ccc(Cl)cc1)Nc1cccc(-c2cccc(N3CCCC3)n2)c1", "RESULT UNIT": "%", "autophagy induction": -2.102}
{"SMILES NOTATION": "CSc1ccc(C(=O)N[C@@H]2CCCC[C@@H]2NC(=O)CNC(=O)c2cc(C(F)(F)F)ccc2NC(=O)NC(C)C)cc1", "RESULT UNIT": "%", "autophagy induction": -8.893}
{"SMILES NOTATION": "Cc1csc(NC(=O)c2cc(F)cc(Oc3cncnc3)c2)n1", "RESULT UNIT": "%", "autophagy induction": -9.437}
{"SMILES NOTATION": "COc1ccc(S(=O)(=O)c2cc(OC)ccc2S(=O)(=O)c2ccc([C@H](C)NS(C)(=O)=O)cc2)cc1", "RESULT UNIT": "%", "autophagy induction": -10.1921}
{"SMILES NOTATION": "CC(C)C[C@H](NC(=O)N1CCCCCC1)C(=O)N[C@H](Cc1cn(C)c2ccccc12)C(=O)N[C@H](Cc1ccccn1)C(=O)O", "RESULT UNIT": "%", "autophagy induction": -8.649}

====

# autophagy induction per entry
Tested on: U2OS
Test: Here: values are normalized to the negative (DMSO; defined as 0% autophagy induction) and positive (250nM Torin1; mTOR inhibitor; defined as maximal inducer of autophagy = 100%) control compounds and represented as % of autophagy induction. […] The impact of autophagy induction on cells is complex and depends on the affected target. As such, the magnitude of a phenotype may not be equally mirrored in the %-value of autophagy induction and vice versa. The dynamics of the induction may indicate the mode of activation: e.g. activation via phosphorylation or a signaling cascade may occur fast, while activation via transcription factors may take considerably longer. […] Of note, treatment concentrations may be sub-optimal for specific compounds, leading to false negative annotations.
Format: functional, Homo sapiens
Settings: Compound Concentration 0.5 uM, Timepoint 24 hours, Culturing Media DMEM, 1 % Penicillin/Streptomycin, 10% Fetal bovin serum Add-On: No, Screening Media Control DMEM, Screening Media Samples DMEM

{"COMPOUND": "COc1ccc(C2(O)OC(=O)C(c3ccc4c(c3)OCO4)=C2Cc2cc(OC)c(OC)c(OC)c2)cc1 (configuration not stated)", "autophagy induction [%]": 0.4369}
{"COMPOUND": "Cl.Clc1ccc(CCCOCCCN2CCCCC2)cc1 [PITOLISANT HYDROCHLORIDE]", "autophagy induction [%]": 6.616}
{"COMPOUND": "Cc1cc(C)cc(C(=O)N(C)[C@H](Cc2ccc(-c3ccccc3)cc2)C(=O)N[C@@H](Cc2c[nH]c3ccccc23)C(=O)O)c1", "autophagy induction [%]": -1.823}
{"COMPOUND": "N#Cc1c(N)nc(SCC(N)=O)c(C#N)c1-c1ccc(OCC2CC2)cc1", "autophagy induction [%]": -1.199}
{"COMPOUND": "O=C1N/C(=N/c2ccccc2F)S/C1=C\\c1ccc(C(=O)O)cc1", "autophagy induction [%]": 0.03156}
{"COMPOUND": "CC(C)C[C@H](NC(=O)N1CCCCCC1)C(=O)N[C@H](Cc1cn(C)c2ccccc12)C(=O)N[C@H](Cc1ccccn1)C(=O)O", "autophagy induction [%]": 0.184}
{"COMPOUND": "Cc1nc(C#Cc2ccnc(Cl)c2)c(C)n1-c1ccc(OC(F)(F)F)cc1", "autophagy induction [%]": 0.06808}
{"COMPOUND": "FC(F)(F)c1c(N2CCC(c3ccccc3)CC2)ccn2c(CC3CC3)nnc12", "autophagy induction [%]": -3.457}
{"COMPOUND": "Cc1nnn(-c2ccc(-c3ccc(C4(C(=O)O)CC4)cc3)cc2)c1NC(=O)O[C@H](C)c1ccccc1", "autophagy induction [%]": 0.2559}
{"COMPOUND": "Cc1c(P(=S)(c2ccccc2)c2ccccc2)n2ccccc2[n+]1C/C=C/c1ccccc1.[Br-]", "autophagy induction [%]": -2.741}
{"COMPOUND": "CCc1ccc(OCc2ccccc2C(=O)Nc2ccc3nc(C)cc(N)c3c2)cc1.Cl", "autophagy induction [%]": 1.625}
{"COMPOUND": "CNc1nc(NCc2ccc(NS(C)(=O)=O)cc2Cl)cc(-c2ccccn2)n1", "autophagy induction [%]": -1.906}
